tested on: influenza A/California/07/2009 (H1N1) virus; assay: microbe, parasite or virus in culture; details: H1N1, MDCK
pEC50: −log10 of the molar value.
Provide the recorded pEC50 for the entries that follow.

For reference, reported pEC50 for CC(N)C12CC3CC(CC(C3)C1)C2 (stereo not drawn) stands at < 4.66

For reference, reported pEC50 for NC(=O)c1ncn([C@@H]2O[C@H](CO)[C@@H](O)[C@H]2O)n1 stands at 4.55

For reference, reported pEC50 for NC12CC3CC(CC(C3)C1)C2 stands at < 4.00

----------
assay: in vitro; details: dog
ASSAY METRIC: CC50

For reference, reported CC50 for CC(=O)N[C@H]1[C@H]([C@H](O)[C@H](O)CO)OC(C(=O)O)=C[C@@H]1N=C(N)N stands at > 100 µM

For reference, reported CC50 for CC(N)C12CC3CC(CC(C3)C1)C2 (stereo not shown) stands at 22 µM

For reference, reported CC50 for CCC(CC)O[C@@H]1C=C(C(=O)O)C[C@H](N)[C@H]1NC(C)=O [Oseltamivir Carboxylate, Oseltamivir carboxylate] stands at > 100 µM

For reference, reported CC50 for NC12CC3CC(CC(C3)C1)C2 stands at > 100 µM

Data provenance is paper PMC3465485.
